Quick reference for Papp A→B at 120 min, 5 μM among some compounds
- System: MDR1 (P-gp)
- test details: Blood-brain-barrier (BBB) penetration potential via MDCK-MDR1 permeability assay
- condition description: dog, MDCK-MDR1, pH 7.4, MDCK-MDR1: Papp A-B, A-B direction

Value of Papp A→B at 120 min, 5 μM reported for the compound CNC(=O)c1cc(O)c(-c2ccc(N(C)[C@H]3C[C@@H]4CC[C@@H](N4)[C@H]3F)nn2)cc1F [Compound 47B] is 1.26 ×10⁻⁶ cm/s

Documented Papp A→B at 120 min, 5 μM of CN(c1ccc(-c2ccc(-c3cnn(C)c3)cc2O)nn1)[C@@H]1C[C@H]2CCC[C@H](N2)[C@@H]1F [Compound 15A] : 2.76 ×10⁻⁶ cm/s

Per the record, CN(c1ccc(-c2ccc(-c3nnco3)cc2O)nn1)[C@H]1C[C@@H]2CC[C@@H](N2)[C@H]1F [Compound 44B] has Papp A→B at 120 min, 5 μM of 8.2 ×10⁻⁶ cm/s

Further cases:
Data point: CN(c1ccc(-c2cc3cccnc3cc2O)nn1)[C@@H]1C[C@H]2CCC[C@H](N2)[C@@H]1F [Compound 41A] ; Papp A→B at 120 min, 5 μM = 2 ×10⁻⁶ cm/s

Lookup result for CN(c1ccc(-c2cc(F)c(-c3ccoc(=O)c3)cc2O)nn1)[C@@H]1C[C@H]2CC[C@H](N2)[C@@H]1F [Compound 17A] ; measured Papp A→B at 120 min, 5 μM: 2.08 ×10⁻⁶ cm/s

Given item CN(c1ccc(-c2ccc(-n3nccn3)cc2O)nn1)[C@@H]1C[C@H]2CC[C@H](N2)[C@@H]1F [Compound 90A] , the value recorded as its Papp A→B at 120 min, 5 μM is 6.97 ×10⁻⁶ cm/s

Papp A→B at 120 min, 5 μM reading for CN(c1ccc(-c2cc3c(F)cn(C)c(=O)c3cc2O)nn1)[C@H]1C[C@@H]2CC[C@@H](N2)[C@H]1F [Compound 54B] : 2.28 ×10⁻⁶ cm/s

According to the records, this compound CN(c1ccc(-c2cc3ncccc3cc2O)nn1)[C@@H]1C[C@H]2CCC[C@H](N2)[C@@H]1F [Compound 78A] displays Papp A→B at 120 min, 5 μM of 2.19 ×10⁻⁶ cm/s

Measured Papp A→B at 120 min, 5 μM of CN(c1ccc(-c2cc(F)c(-c3ccn(C)c(=O)c3)cc2O)nn1)[C@H]1C[C@@H]2CC[C@@H](N2)[C@H]1F : 0.49 ×10⁻⁶ cm/s

Papp A→B at 120 min, 5 μM reported for this compound COc1cc(-c2ccc(-c3ccc(N(C)[C@H]4CC5N[C@@H](C4)CC5(F)F)nn3)c(O)c2)cnn1 (single isomer, unassigned) : 11.3 ×10⁻⁶ cm/s

====

- System: MDR1-MDCK cell monolayers
- condition description: dog, MDCK-MDR1, 120 min, 5 μM, pH 7.4
Kind request: treat 90% as inclusive, so MDCK-MDR1: % Recov B-A at 90% or higher is true (1), anything lower is false (0).

Take a look at these entries with their results.
Qu. Dear colleague, could you confirm whether O=c1c2cc(O)c(-c3ccc(N(C4CC4)[C@@H]4C[C@H]5CC[C@H](N5)[C@@H]4F)nn3)cc2ncn1CC(F)(F)F (single isomer, unassigned) [Compound 60A] has MDCK-MDR1: % Recov B-A at or above 90%?
Ans. true (1)

Qu. Kindly determine if MDCK-MDR1: % Recov B-A recorded for CN(c1ccc(-c2cc(C#N)ccc2O)nn1)[C@H]1C[C@@H]2CC[C@@H](N2)[C@H]1F (single isomer, unassigned) [Compound 70B] is above or exactly 90%.
Ans. true (1)

Qu. Answer whether MDCK-MDR1: % Recov B-A of CN(c1ccc(-c2cc3cc[nH]c(=O)c3s2)nn1)[C@@H]1C[C@H]2CC[C@H](N2)[C@@H]1F (single isomer, unassigned) [Compound 66A] is greater than or equal to 90%.
Ans. true (1)

More entries:
Qu. // inclusive: MDCK-MDR1: % Recov B-A at least 90%? input: CN(c1ccc(-c2ccc(Oc3cnn(C)c3)cc2O)nn1)[C@@H]1C[C@H]2CC[C@H](N2)[C@@H]1F (single isomer, unassigned) [Compound 91A]
Ans. false (0)

Qu. Decide: MDCK-MDR1: % Recov B-A of Cc1nc2cc(-c3ccc(N(C)[C@H]4C[C@@H]5CC[C@H]([C@H]4F)N5C)nn3)c(O)cc2c(=O)n1CC(F)(F)F (single isomer, unassigned) [Compound 130B] >= 90%?
Ans. true (1)

Qu. Please indicate if the recorded MDCK-MDR1: % Recov B-A for CN(c1ccc(-c2ccc(Oc3nccn3C)cc2O)nn1)[C@@H]1C[C@H]2CC[C@H](N2)[C@@H]1F (single isomer, unassigned) [Compound 123A] meets or exceeds 90%.
Ans. true (1)

Qu. I'd appreciate it if you could say whether CN(c1ccc(-c2ccc(Oc3cnn(C)c3)cc2O)nn1)[C@H]1C[C@@H]2CC[C@@H](N2)[C@H]1F (single isomer, unassigned) [Compound 91B] has MDCK-MDR1: % Recov B-A at least equal to 90%.
Ans. true (1)

Qu. Would you say CN(c1ccc(-c2cc3ncn(CC(F)(F)F)c(=O)c3cc2O)nn1)[C@@H]1C[C@H]2CCC[C@@H]([C@@H]1F)N2C (single isomer, unassigned) [Compound 109A] shows MDCK-MDR1: % Recov B-A at minimum 90%?
Ans. false (0)

Qu. Confirm if MDCK-MDR1: % Recov B-A reported for the compound CN(c1ccc(-c2cc3occc(=O)c3cc2O)nn1)[C@@H]1C[C@H]2CC[C@@H]([C@@H]1F)N2C (single isomer, unassigned) [Compound 94A] is 90% or above.
Ans. false (0)

====

- Test system: MDR1-MDCK cell monolayers
- test details: Blood-brain-barrier (BBB) penetration potential via MDCK-MDR1 permeability assay
- condition description: B-A direction
reported property: MDCK-MDR1: % Recov B-A (%)
Number in %, nothing else.

// field: MDCK-MDR1: % Recov B-A; key: CN(c1ccc(-c2cc3cnccc3cc2O)nn1)[C@@H]1C[C@H]2CC[C@H](N2)[C@@H]1F (single isomer, unassigned) [Compound 7B] ; value = 89

Notebook: CN(c1ccc(-c2ccc(-c3cn[nH]c3)cc2O)nn1)[C@@H]1C[C@H]2CC[C@H](N2)[C@@H]1F (single isomer, unassigned) [Compound 42A] , MDCK-MDR1: % Recov B-A read as 91

Alright, here's another compound for you.
Just so you know, measured MDCK-MDR1: % Recov B-A for CN(c1ccc(-c2ccc(-c3cnccn3)cc2O)nn1)[C@@H]1C[C@H]2CCC[C@H](N2)[C@@H]1F [Compound 24A] came out at 90

====

- Test system: MDR1-MDCK cell monolayers
- test details: Blood-brain-barrier (BBB) penetration potential via MDCK-MDR1 permeability assay
- condition description: A-B
Short version: MDCK-MDR1: % Recov A-B at least 80% is TRUE, less is FALSE.

Past entries and their recorded results:
Qu. Please indicate if the recorded MDCK-MDR1: % Recov A-B for CN(c1ccc(-c2cc3c(=O)n(C)cnc3cc2O)nn1)[C@H]1C[C@@H]2CC[C@H]([C@H]1F)N2C [Compound 102B] meets or exceeds 80%.
Ans. TRUE

Qu. Could you tell me if the measured MDCK-MDR1: % Recov A-B of CN(c1ccc(-c2cc3ccncc3cc2O)nn1)[C@H]1C[C@@H]2CC(F)(F)[C@H](C1)N2 [Compound 125B] reaches 80% or more?
Ans. FALSE

Qu. Is reported MDCK-MDR1: % Recov A-B greater than or equal to 80% here: Cc1cc(=O)c2cc(O)c(-c3ccc(N(C)[C@H]4C[C@@H]5CC[C@H]([C@H]4F)N5C)nn3)cc2o1 [Compound 99B]
Ans. TRUE

Qu. Decide: MDCK-MDR1: % Recov A-B of Cc1nc2cc(-c3ccc(N(C)[C@H]4C[C@@H]5CC[C@@H](N5)[C@H]4F)nn3)c(O)cc2c(=O)n1CC(F)(F)F [Compound 113B] >= 80%?
Ans. TRUE

Further cases:
Qu. Check if MDCK-MDR1: % Recov A-B >= 80% (inclusive). Item: CN(c1ccc(-c2cc3ncn(C)c(=O)c3cc2O)nn1)[C@@H]1C[C@H]2CC[C@@H]([C@@H]1F)N2C [Compound 101A]
Ans. TRUE

Qu. Entry Cc1nc2cc(-c3ccc(N(C)[C@@H]4C[C@H]5CC[C@H](N5)[C@@H]4F)nn3)c(O)cc2c(=O)n1CC(F)(F)F [Compound 113A] : is its MDCK-MDR1: % Recov A-B no less than 80%?
Ans. TRUE

Qu. Determine whether this molecule has MDCK-MDR1: % Recov A-B no lower than 80%: Cc1nc2cc(-c3ccc(N(C)[C@@H]4C[C@H]5CC[C@H](N5)[C@@H]4F)nn3)c(O)cc2c(=O)n1C [Compound 114A]
Ans. TRUE

Qu. Item CN(c1ccc(-c2cc3oc(C(=O)N4CCC4)cc3cc2O)nn1)[C@@H]1C[C@H]2CC[C@H](N2)[C@@H]1F [Compound 112A] with MDCK-MDR1: % Recov A-B of 80% or above?
Ans. TRUE
